Protocol Text: A CellTox Green Cytotoxicity Assay to monitor cytotoxicity in HEK293 cells - 8 hour (AID 1224884); note: nearly all actives have a fitted effect of over 35% in size
Experimental Conditions: CellTox Green fluorescence; series mostly up to 76.8 µM
Inconclusive results are not listed. Activity calls are given as the source filed them. Calls come from the whole dose curve; as a rule, active = well fitted activation curve with a large enough effect in the repeat runs; inconclusive = weak or mixed curves; inactive = flat fitted curve, though single readings scatter.
Classes used: 1 (yes) for active, 0 (no) for inactive

| Smiles Code | Cat |
| --- | --- |
| COc1cc(/C=C/C(=O)CC(=O)/C=C/c2ccc(O)c(OC)c2)ccc1O | 1 (yes) |
| C/C=C/C(=O)OCC(C)C | 0 (no) |
| CSc1nnc(C(C)(C)C)c(=O)[nH]1 | 0 (no) |
| CN(C)CCOc1ccc(/C(=C(/CCCl)c2ccccc2)c2ccccc2)cc1 | 1 (yes) |

----------
Target Entity: Voltage-gated inwardly rectifying potassium channel KCNH2 (Homo sapiens) (UniProt Q12809)
Sequence (Q12809 whole entry, looked up): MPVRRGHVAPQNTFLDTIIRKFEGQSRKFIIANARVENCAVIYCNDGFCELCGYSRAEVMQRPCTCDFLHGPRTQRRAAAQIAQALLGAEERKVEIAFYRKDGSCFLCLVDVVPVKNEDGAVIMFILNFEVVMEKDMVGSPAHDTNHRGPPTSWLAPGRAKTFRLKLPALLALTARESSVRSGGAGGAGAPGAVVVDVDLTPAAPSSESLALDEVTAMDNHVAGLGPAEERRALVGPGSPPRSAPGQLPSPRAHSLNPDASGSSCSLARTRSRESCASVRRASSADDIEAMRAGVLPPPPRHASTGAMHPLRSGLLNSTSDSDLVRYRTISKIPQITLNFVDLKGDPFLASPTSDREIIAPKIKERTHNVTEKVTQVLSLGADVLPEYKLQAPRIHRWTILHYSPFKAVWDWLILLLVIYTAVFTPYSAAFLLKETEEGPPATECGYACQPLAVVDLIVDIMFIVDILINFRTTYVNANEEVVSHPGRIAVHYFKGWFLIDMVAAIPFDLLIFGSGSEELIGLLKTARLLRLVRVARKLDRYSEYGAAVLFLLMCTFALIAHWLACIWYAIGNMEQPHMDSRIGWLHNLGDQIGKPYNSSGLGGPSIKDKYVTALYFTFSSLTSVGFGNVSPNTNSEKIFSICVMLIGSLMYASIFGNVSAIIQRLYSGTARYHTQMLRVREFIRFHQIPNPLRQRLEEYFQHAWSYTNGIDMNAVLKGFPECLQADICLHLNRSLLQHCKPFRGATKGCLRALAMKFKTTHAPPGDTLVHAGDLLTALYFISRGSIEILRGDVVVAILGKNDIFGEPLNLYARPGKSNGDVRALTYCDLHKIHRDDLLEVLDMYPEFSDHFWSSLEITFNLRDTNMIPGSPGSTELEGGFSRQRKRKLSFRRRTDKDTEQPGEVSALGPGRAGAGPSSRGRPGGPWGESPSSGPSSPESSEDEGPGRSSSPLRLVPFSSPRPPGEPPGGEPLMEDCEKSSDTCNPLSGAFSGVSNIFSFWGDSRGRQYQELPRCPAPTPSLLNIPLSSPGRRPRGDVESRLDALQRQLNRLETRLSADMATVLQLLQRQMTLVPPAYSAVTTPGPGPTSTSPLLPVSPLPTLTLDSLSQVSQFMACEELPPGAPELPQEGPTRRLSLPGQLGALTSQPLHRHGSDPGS
Protocol Text: Human Ether-a-go-go-Related Gene (hERG) channel small molecule antagonists: fluorescence cell-based qHTS assay (AID 1671200); note: nearly all actives have a fitted effect of over 50% in size
Experimental Conditions: hERG-U2OS cells, FluxOR thallium flux fluorescence; series mostly up to 76.8 µM
Description: National Center for Advancing Translational Sciences [NCATS] U.S. Environmental Protection Agency [EPA] National Institutes of Environmental Health Sciences [NIEHS] National Toxicology Program [NTP] U.S. Food and Drug Administration [FDA] Mutations in the hERG channel cause Long QT (LQT) syndrome. LQT syndrome is a cardiac disorder which can cause ventricle arrhythmia and sudden death. Additionally, compounds which block the hERG channel can cause acquired LQT syndrome. […]
Records with an inconclusive call do not appear. The source made the active and inactive calls. The call rests on the fitted dose curve; in most records, active means well fitted inhibition curve with a large enough effect in the repeat runs; inconclusive means weak or mixed curves; inactive means flat fitted curve, though single readings scatter.
Classes used: active, inactive

| Molecule | Target Entity | Cat |
| --- | --- | --- |
| CCCCCCCCCCCC(=O)Cl | Voltage-gated inwardly rectifying potassium channel KCNH2 (Homo sapiens) (UniProt Q12809) | inactive |
| NC(=O)c1ccccc1Cl | Voltage-gated inwardly rectifying potassium channel KCNH2 (Homo sapiens) (UniProt Q12809) | inactive |
| C/C(=C\c1ccc(C(=O)O)cc1)c1ccc2c(c1)C(C)(C)CCC2(C)C | Voltage-gated inwardly rectifying potassium channel KCNH2 (Homo sapiens) (UniProt Q12809) | inactive |
| Clc1nc(C(Cl)(Cl)Cl)c(Cl)c(Cl)c1Cl | Voltage-gated inwardly rectifying potassium channel KCNH2 (Homo sapiens) (UniProt Q12809) | active |
| C=C(C)C1CCC(C)CC1O (stereo unspecified) | Voltage-gated inwardly rectifying potassium channel KCNH2 (Homo sapiens) (UniProt Q12809) | inactive |
| Clc1cccc(Cl)n1 | Voltage-gated inwardly rectifying potassium channel KCNH2 (Homo sapiens) (UniProt Q12809) | inactive |

----------
Target Entity: Aryl hydrocarbon receptor (Homo sapiens) (UniProt P35869)
Sequence (P35869 whole entry, looked up): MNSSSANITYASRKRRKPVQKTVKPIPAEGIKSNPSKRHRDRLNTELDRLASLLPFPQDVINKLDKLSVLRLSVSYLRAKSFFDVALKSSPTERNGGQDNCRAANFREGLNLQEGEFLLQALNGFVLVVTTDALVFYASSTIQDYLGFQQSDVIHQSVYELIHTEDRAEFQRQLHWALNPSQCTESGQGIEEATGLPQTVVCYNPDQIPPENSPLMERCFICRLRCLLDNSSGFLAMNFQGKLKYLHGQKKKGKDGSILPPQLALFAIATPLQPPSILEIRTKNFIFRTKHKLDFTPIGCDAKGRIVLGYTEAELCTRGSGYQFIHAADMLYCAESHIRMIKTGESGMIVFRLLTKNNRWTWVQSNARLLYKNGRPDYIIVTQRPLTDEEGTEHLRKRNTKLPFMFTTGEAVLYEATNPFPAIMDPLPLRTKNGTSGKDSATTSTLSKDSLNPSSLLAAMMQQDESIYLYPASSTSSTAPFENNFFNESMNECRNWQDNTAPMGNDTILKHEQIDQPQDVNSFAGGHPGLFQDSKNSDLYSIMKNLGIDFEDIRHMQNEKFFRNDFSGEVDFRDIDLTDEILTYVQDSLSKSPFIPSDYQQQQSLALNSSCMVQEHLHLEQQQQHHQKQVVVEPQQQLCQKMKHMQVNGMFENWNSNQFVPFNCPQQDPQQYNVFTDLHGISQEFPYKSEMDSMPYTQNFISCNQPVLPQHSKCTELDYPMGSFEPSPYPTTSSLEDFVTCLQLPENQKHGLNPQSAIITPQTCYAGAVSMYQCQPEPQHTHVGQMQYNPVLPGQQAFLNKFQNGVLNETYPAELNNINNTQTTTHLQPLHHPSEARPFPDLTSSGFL
Protocol Text: qHTS assay to identify small molecule that activate the aryl hydrocarbon receptor (AhR) signaling pathway (AID 743085); note: nearly all actives have a fitted effect of over 15% in size;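 for activation: HG2L7.5c1 human HepG2 liver cells with stably integrated DRE-driven firefly reporter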
Experimental Conditions: HepG2 AhR-luc (HG2L7.5c1), luciferase, 24 h; series mostly up to 70.3 µM
From the text: U.S. Tox21 Program National Center for Advancing Translational Sciences [NCATS] NIH Chemical Genomics Center [NCGC] U.S. Environmental Protection Agency [EPA] National Institutes of Environmental Health Sciences [NIEHS] National Toxicology Program [NTP] U.S. Food and Drug Administration [FDA] Tox21 Assay overview: The Aryl hydrocarbon Receptor (AhR), a member of the family of basic helix-loop-helix transcription factors, is crucial to adaptive responses to environmental changes. […]
Results filed as inconclusive are left out. Active and inactive are the calls of the source. The call rests on the fitted dose curve; in most records, active means well fitted activation curve with a large enough effect in the repeat runs; inconclusive means weak or mixed curves; inactive means no such curve, though single readings can be large or run the other way.
Classes used: true (1) for active, false (0) for inactive

| Compound | Target Entity | Cat |
| --- | --- | --- |
| NC(=O)[C@H]1O[C@@H](O)[C@H](O)[C@@H](O)[C@@H]1O | Aryl hydrocarbon receptor (Homo sapiens) (UniProt P35869) | false (0) |
| Cc1cc(F)ccc1-c1cc(N2CC[C@@H](O)[C@H]2CO)ncc1N(C)C(=O)C(C)(C)c1cc(C(F)(F)F)cc(C(F)(F)F)c1 | Aryl hydrocarbon receptor (Homo sapiens) (UniProt P35869) | false (0) |
| CC(C)NCC1CCc2cc(CO)c([N+](=O)[O-])cc2N1 (configuration not stated) | Aryl hydrocarbon receptor (Homo sapiens) (UniProt P35869) | false (0) |
| CC(=O)O[C@H]1C[C@@H]2CC[C@@H]3[C@H](CC[C@@]4(C)[C@H]3C[C@H]([N+]3(C)CCCCC3)[C@@H]4OC(C)=O)[C@@]2(C)C[C@@H]1[N+]1(C)CCCCC1 | Aryl hydrocarbon receptor (Homo sapiens) (UniProt P35869) | false (0) |
| CC(CNC(=O)c1cccnc1)NC(=O)c1cccnc1 (configuration not stated) | Aryl hydrocarbon receptor (Homo sapiens) (UniProt P35869) | false (0) |
| O=P(O)(O)CP(=O)(O)O | Aryl hydrocarbon receptor (Homo sapiens) (UniProt P35869) | false (0) |
| NCCCC(=O)O | Aryl hydrocarbon receptor (Homo sapiens) (UniProt P35869) | false (0) |
| NCCCC[C@H](NC(=O)[C@@H]1CCCN1C(=O)[C@@H]1CSSC[C@H](N)C(=O)N[C@@H](Cc2ccc(O)cc2)C(=O)N[C@@H](Cc2ccccc2)C(=O)N[C@@H](CCC(N)=O)C(=O)N[C@@H](CC(N)=O)C(=O)N1)C(=O)NCC(N)=O | Aryl hydrocarbon receptor (Homo sapiens) (UniProt P35869) | false (0) |
| O=C1OC(O)C(C(Cl)Cl)=C1Cl (configuration not stated) | Aryl hydrocarbon receptor (Homo sapiens) (UniProt P35869) | false (0) |
| CCOc1ccc([N+](=O)[O-])cc1 | Aryl hydrocarbon receptor (Homo sapiens) (UniProt P35869) | false (0) |
| COc1cc([C@@H]2c3cc4c(cc3[C@@H](O[C@@H]3O[C@@H]5CO[C@@H](C)O[C@H]5[C@H](O)[C@H]3O)[C@H]3COC(=O)[C@H]23)OCO4)cc(OC)c1O | Aryl hydrocarbon receptor (Homo sapiens) (UniProt P35869) | false (0) |
| O=C(CCN1CCC(c2ccccc2)C1)c1ccc2c(c1)OCCO2 (configuration not stated) | Aryl hydrocarbon receptor (Homo sapiens) (UniProt P35869) | false (0) |
| O=C1OC(=O)c2cc(-c3ccc4c(c3)C(=O)OC4=O)ccc21 | Aryl hydrocarbon receptor (Homo sapiens) (UniProt P35869) | false (0) |
| CC(C)=CCC/C(C)=C/CC/C(C)=C/CC/C(C)=C/CC1=C(C)C(=O)c2ccccc2C1=O | Aryl hydrocarbon receptor (Homo sapiens) (UniProt P35869) | true (1) |
| Cc1cnc(C(=O)O)c[n+]1[O-] | Aryl hydrocarbon receptor (Homo sapiens) (UniProt P35869) | false (0) |
| Clc1nc(C(Cl)(Cl)Cl)c(Cl)c(Cl)c1Cl | Aryl hydrocarbon receptor (Homo sapiens) (UniProt P35869) | true (1) |
| CC(=O)NC[C@H]1CN(c2ccc(N3CCOCC3)c(F)c2)C(=O)O1 | Aryl hydrocarbon receptor (Homo sapiens) (UniProt P35869) | false (0) |
